Known viability at 28.5 h, 10 µM of a selection of compounds
procedureText: in vitro
assayConditions: human, hela cells, % viability
measuredAttribute: viability at 28.5 h, 10 µM

>>> print(df.to_string())
                                    compound  testresult
 0  c1ccc(Nc2nc(-c3cccs3)cn3ccnc23)cc1 [CBK066513]       83.7%
 1  Cc1cc(C)n(CC(=O)Nc2cccc(CCc3ccncc3)c2)c(=O)n1 [CBK285555]        105%
 2   CC(C)(C#N)C(C)(C)c1nnn[nH]1 [CBK067072]       85.1%
 3  Cc1cc(C)c(NC(=O)CSc2ncccc2-c2nc(C)no2)c(C)c1 [CBK287821]       86.7%
 4  O=c1[nH]nc2c3ccc(Cl)cc3ncn12 [CBK283988]       62.3%
 5  COc1ccc(C(=O)N2CCN(C)CC2)cc1Nc1cncc(-c2cc3ccccc3o2)n1 [CBK155266T]       89.9%
 6  Cc1c2c(=O)n(-c3ccccc3)[nH]c2cc(=O)n1CCc1ccccc1 [CBK269995]        101%
 7  CCN1CC2(CCCN(Cc3nnc(-c4cccnc4)o3)C2)CCC1=O (centres unmarked) [CBK306881]       86.4%
 8  CCC(=O)N(C)C(CO)c1cc(OC)ccc1Br (centres unmarked) [CBK304156]       95.9%
 9  O=C(c1cnc2cc(Cl)ccc2c1O)N1CCN(c2ncccn2)CC1 [CBK107358]        108%
10  Cn1nccc1C(=O)Nc1nc(-c2ccccc2)cs1 [CBK287833]       83.8%
11  O=S(=O)(Nc1cccc(-c2nnn[nH]2)c1)c1ccc(F)cc1 [CBK050470]       88.5%
12  O=C(CCOc1ccccc1)Nc1cnc(-c2ccc(F)cc2)c(-c2ccco2)n1 [CBK036967]       93.1%
13  Cc1nc2n(n1)C(c1ccccn1)C1=C(CC(C)CC1=O)N2 (centres unmarked) [CBK288230]       82.9%
14  CC1=CCN(C(=O)c2cccc(S(=O)(=O)NCC3CCCO3)c2)CC1 (centres unmarked) [CBK304669]       95.5%
15  COc1ccc([N+](=O)[O-])cc1NC(=O)C1(c2ccc(OC)c(OC)c2)CCOCC1 [CBK266243]       98.2%
16  CNC(=O)C1(Cc2ccccc2-c2cccc(F)c2)CCN(C(=O)Cc2ccccc2)CC1 [CBK285692]        115%
17  CCOCC1CCN(C(=O)c2ncsc2Nc2ccccc2)C1 (centres unmarked) [CBK304204]        117%
18  CC(C)[C@H](CO)Nc1cncc(-c2ccc(F)cc2F)n1 [CBK065883]       92.3%
19  Cn1c(CN2CCOCC2)nnc1SCC(=O)Nc1cccc(F)c1 [CBK269629]       80.2%

###

Listed next: entries and their corresponding viability at 28.5 h, 10 µM.
procedureText: in vitro
assayConditions: human, hela cells, % viability
measuredAttribute: viability at 28.5 h, 10 µM (%)

In [3]: df
Out[3]:
                                   compound           measuredattribute  testresult
0            Nc1nc2c(O)cccc2s1 [CBK003892B]  viability at 28.5 h, 10 µM        85.6
1  CC(C)(C)CNc1ccc(S(=O)(=O)N2CCOC2=O)cc1 [CBK028347]  viability at 28.5 h, 10 µM         113
2  Cn1c(CN2CCCC2)nc2cc(NC(=O)C3CCCCC3)ccc21 [CBK307418]  viability at 28.5 h, 10 µM        98.6
3  O=C(O)CCNC(=O)/C(=C/c1ccc(Cl)cc1)NC(=O)c1ccccc1 [CBK300484]  viability at 28.5 h, 10 µM        86.5
4  O=C(O)CC(NC=C1C(=O)CCCC1=O)C(=O)O (stereo not shown) [CBK261997]  viability at 28.5 h, 10 µM        85.2
5  CN1CCN(c2ccc(NS(=O)(=O)c3ccc(Cl)cc3)cc2)CC1 [CBK076932]  viability at 28.5 h, 10 µM        97.9
6  CCCCN1CCCC1c1c[nH]c2ccccc12 (stereo not shown) [CBK023773G]  viability at 28.5 h, 10 µM          93
7  Cc1ccc(Cl)cc1NC(=O)c1cnc2scc(C)n2c1=O [CBK287464]  viability at 28.5 h, 10 µM        98.7
8  O=C(Nc1c(F)cc(F)cc1OC1CCNCC1)c1ccnc2ccccc12 [CBK050277T]  viability at 28.5 h, 10 µM        94.9
9  O=C(Cn1c(C2CCCNC2)cc2cccnc21)N1CCCCCC1 (stereo not shown) [CBK285014]  viability at 28.5 h, 10 µM        86.3

###

procedureText: in vitro
assayConditions: human, hela cells, % viability
In this section, each of the molecules is paired with its reported viability at 28.5 h, 10 µM.
measuredAttribute: viability at 28.5 h, 10 µM (%)

                                   molecule  testresult
0  CCN1CCN(S(=O)(=O)c2ccccc2F)CC1 [CBK100558]         104
1  CN(C)c1ccc(C2C(C(=O)c3ccccc3)=C(O)C(=O)N2CCCC(=O)O)cc1 (centres unmarked) [CBK263393]        96.4
2  CC(=O)Nc1ccc(Nc2cc(C)nc(-n3nc(C)cc3C)n2)cc1 [CBK287746]         103
3  COc1ccccc1-c1nccnc1NCc1cc(OC)c(OC)c(OC)c1 [CBK036642]        90.6
4  CCC(CO)Nc1nccnc1-c1ccoc1 (centres unmarked) [CBK088756]         100

###

procedureText: in vitro
Parameters: Viability of infected HeLa host cells, resazurin conversion, bulk resorufin fluorescence relative to DMSO
assayConditions: human, hela cells; bulk resorufin, mean of 2
Measured viability at 28.5 h, 10 µM by item
measuredAttribute: viability at 28.5 h, 10 µM (%)

In [3]: df
Out[3]:
                                   molecule           measuredattribute  testresult
0  O=C1CC[C@@H](NCc2cccs2)[C@H](c2cc(F)cc(F)c2)N1 [CBK283129]  viability at 28.5 h, 10 µM         110
1  CC(C)NCC(O)Cn1c2c(c3ccccc31)CCc1c-2cnn1-c1ccccc1 (centres unmarked) [CBK261107]  viability at 28.5 h, 10 µM        82.4
2  c1ccc(Oc2cccc(OCCCN3CCCCC3)c2)cc1 [CBK261781]  viability at 28.5 h, 10 µM         101
3  Cn1nnnc1-c1cccc(NC(=O)c2ccc(Oc3ccccc3)cc2)c1 [CBK297872]  viability at 28.5 h, 10 µM        89.1
4  Cc1cc(C(=O)Nc2cccc(S(=O)(=O)N3CCOCC3)c2)sc1-c1ccccc1 [CBK268185]  viability at 28.5 h, 10 µM        98.5

###

procedureText: in vitro
assayConditions: human, hela cells, % viability
measuredAttribute: viability at 28.5 h, 10 µM (%)

>>> df
                                    compound  testresult
 0  CN1C[C@@H](C(=O)N2CCCCCC2)[C@@]2(CCc3ccccc3C2=O)C1          87
 1  CCOC(=O)c1cn(CC)c2cc(N3CCN(C)CC3)c(F)cc2c1=O        92.9
 2  O=[N+]([O-])c1ccc(CN2CCN(c3nccnc3OCc3ccc(Cl)c(Cl)c3)CC2)cc1 [CBK083076T]         101
 3               O=C(O)CC1c2ccccc2Oc2ccccc21          92
 4     COc1ccccc1-c1cc2nc(C)cc(N3CCOCC3)n2n1        88.7
 5  COc1cc(-c2cncc(N[C@@H](C)c3ccccc3)n2)cc(OC)c1OC         104
 6  O=C(C1CCCC1)N1CCCC(c2nccnc2-c2cccc(C(F)(F)F)c2)C1 (stereo not shown)         110
 7  CC(=O)Nc1nc(OCC(F)(F)F)cnc1-c1ccc2c(c1)OCO2        91.8
 8  N#Cc1ccc(S(=O)(=O)NC2CCCCNC2=O)cc1 (stereo not shown)         102
 9  CC(C)c1cc(C(=O)N(C)Cc2cccc3ncccc23)n(C)n1        86.4
10  O=C(Cc1ccsc1)N1CCC2(CCCNC2)C1 (stereo not shown) [CBK137153C]        85.4
11        CC(=O)NCCn1nc(-c2ccccc2F)cc1CN(C)C        95.7
12  O=C(c1ccc(F)cc1)N1C[C@H](c2ccsc2)[C@H]2CN(Cc3cccs3)CC[C@H]21         114
13  Cc1oc(-c2ccccc2)cc1C(=O)Nc1c(F)cc(F)cc1OC1CCNCC1 [CBK050326T]        89.8
14        CCn1cc(-c2cncn2CCOc2ccc(Cl)cc2)cn1        81.8
15  CCN(CC)c1ccc(NC(=O)c2cc(-c3cccnc3)cnc2NCCN2CCOCC2)cc1         105
16  COc1ccc(S(=O)(=O)N(CCc2ccccc2)CC(=O)O)cc1C          95
17  COCCN(Cc1ccccc1C)C(=O)C1CCc2nn(C)c(=O)n2C1 (stereo not shown)        80.8
18     CCc1nc(CN2CCN(C(=O)Nc3ccccc3C)CC2)cs1        87.5
